# Test system: HepG2
# EXPERIMENTAL_PARAMETERS: human
METRIC_NAME: CC50 (µM)
Numbers only, in µM.

Read off the recorded CC50 for CC(C)OC(=O)OCOP(=O)(CO[C@H](C)Cn1cnc2c(N)ncnc21)OCOC(=O)OC(C)C.O=C(O)/C=C/C(=O)O [TDF, tenofovir disoproxil fumarate]
64.5

====

The reader will find TI (CC50/EC50) HIV-1 measurements below, all made with HIV-1.

C[C@H](Cn1cnc2c(N)ncnc21)OCP(=O)(O)OCCS
>5.38
C[C@H](Cn1cnc2c(N)ncnc21)OCP(=O)(O)OCCSSCCO
>62.1
CCCCCCCCCCCCCCCCOCCCOP(=O)(O)CO[C@H](C)Cn1cnc2c(N)ncnc21 [compound 1, hexadecyloxypropyl-tenofovir, reference compound]
>5000

Attention now shifts to the item below.
Read off the recorded TI (CC50/EC50) HIV-1 for C[C@H](Cn1cnc2c(N)ncnc21)OCP(=O)(O)O [TFV, Tenofovir, reference compound]
>300
